What pest or weed control at 100 µg/mL was measured for each of the following?
test system: Puccinia triticina; test: Fungicidal activity: Wheat Brown Rust (PUCCRT); format: in vivo; settings: 24 h, High Volume (100 ppm), 1 Day Protectant, read-out: PUCCRT 1 DP disease control

// solved cases for pest or weed control at 100 µg/mL follow
[
  {
    "query-smiles": "COc1ccnc(C(=O)N[C@H]2COC[C@H](Cc3ccc(C(F)(F)F)cc3)[C@@H](Cc3ccc(F)cc3)[C@H](C)OC2=O)c1O",
    "outcome-measure": "pest or weed control at 100 µg/mL",
    "val": "> 70%"
  },
  {
    "query-smiles": "COc1ccnc(C(=O)N[C@H]2COC[C@H](CCC(C)C)[C@@H](C3CCCC3)[C@H](C)OC2=O)c1O",
    "outcome-measure": "pest or weed control at 100 µg/mL",
    "val": "> 70%"
  },
  {
    "query-smiles": "COc1ccnc(C(=O)N[C@H]2COC[C@H](CCCc3ccccc3)[C@@H](CC(C)C)[C@H](C)OC2=O)c1O",
    "outcome-measure": "pest or weed control at 100 µg/mL",
    "val": "> 70%"
  },
  {
    "query-smiles": "COc1ccnc(C(=O)N[C@H]2COC[C@H](Cc3ccccc3)[C@@H](CC(C)C)[C@H](C)OC2=O)c1O",
    "outcome-measure": "pest or weed control at 100 µg/mL",
    "val": "> 70%"
  },
  {
    "query-smiles": "COc1ccnc(C(=O)N[C@H]2COC[C@H](Cc3ccccc3)[C@@H](COc3ccccc3)[C@H](C)OC2=O)c1O",
    "outcome-measure": "pest or weed control at 100 µg/mL",
    "val": "> 70%"
  },
  {
    "query-smiles": "COc1ccnc(C(=O)N[C@H]2COC[C@H](c3ccccc3)[C@@H](c3ccccc3)[C@H](C)OC2=O)c1O",
    "outcome-measure": "pest or weed control at 100 µg/mL",
    "val": "> 70%"
  }
]

Batch of 6 compounds: report pest or weed control at 100 µg/mL for each.
1. COc1ccnc(C(=O)N[C@H]2COC[C@H](Cc3ccc(Cl)cc3)[C@@H](Cc3ccccc3)[C@H](C)OC2=O)c1O
2. COc1ccnc(C(=O)N[C@H]2COC[C@H](CC3CCCCC3)[C@@H](CC3CCCCC3)[C@H](C)OC2=O)c1O
3. CCC[C@H]1COC[C@H](NC(=O)c2nccc(OC)c2O)C(=O)O[C@@H](C)[C@@H]1Cc1ccccc1
4. C=C(C)COC[C@@H]1[C@@H](Cc2ccccc2)COC[C@H](NC(=O)c2nccc(OC)c2O)C(=O)O[C@H]1C
5. COc1ccnc(C(=O)N[C@H]2COC[C@H](Cc3ccccc3)[C@@H](Cc3ccccc3)[C@@H](C)OC2=O)c1OCOC(C)=O
6. COc1ccnc(C(=O)N[C@H]2COC[C@H](CCC(C)C)[C@@H](CCC(C)C)[C@H](C)OC2=O)c1OCOC(C)=O

Out:
["> 70%", "> 70%", "> 70%", "< 70%", "< 70%", "> 70%"]

For each of the compounds below, state pest or weed control at 100 µg/mL.
1. COc1cccc(C[C@H]2COC[C@H](NC(=O)c3nccc(OC)c3O)C(=O)O[C@@H](C)[C@@H]2Cc2cccc(OC)c2)c1
2. COc1ccnc(C(=O)N[C@H]2COC[C@H](Cc3ccc(Cl)cc3)[C@@H](Cc3ccc(OC(F)(F)F)cc3)[C@H](C)OC2=O)c1O
3. CCC[C@H]1COC[C@H](NC(=O)c2nccc(OC)c2O)C(=O)O[C@@H](C)[C@@H]1c1ccccc1
4. COc1ccnc(C(=O)N[C@H]2COC[C@H](Cc3ccccc3)[C@@H](COCC(C)C)[C@H](C)OC2=O)c1O
5. COc1ccnc(C(=O)N[C@H]2COC[C@H](Cc3ccc(Cl)cc3)[C@@H](C3CCCC3)[C@H](C)OC2=O)c1O
6. COc1ccnc(C(=O)N[C@H]2COC[C@H](CCCc3ccccc3)[C@@H](CCc3ccccc3)[C@H](C)OC2=O)c1O
7. CCCC[C@@H]1[C@@H](Cc2ccccc2)COC[C@H](NC(=O)c2nccc(OC)c2OCOC(C)=O)C(=O)O[C@H]1C

Out:
1. > 70%
2. > 70%
3. > 70%
4. < 70%
5. > 70%
6. > 70%
7. < 70%

Please look at the items below and tell me pest or weed control at 100 µg/mL for each one, in order.
1. COc1ccnc(C(=O)N[C@H]2COC[C@H](Cc3ccccc3)[C@@H](Cc3ccc(F)cc3)[C@H](C)OC2=O)c1O
2. COc1ccnc(C(=O)N[C@H]2COC[C@H](Cc3ccccc3)[C@@H](Cc3ccc(OC(F)(F)F)cc3)[C@H](C)OC2=O)c1O
3. COc1ccnc(C(=O)N[C@H]2COC[C@H](CC3CC3)[C@@H](Cc3ccc(F)cc3)[C@H](C)OC2=O)c1O
4. COc1ccnc(C(=O)N[C@H]2COC[C@@H]3CCCC[C@H]3[C@H](C)OC2=O)c1OCOC(C)=O
5. COc1ccnc(C(=O)N[C@H]2COC[C@H](Cc3ccccc3)[C@@H](c3ccccc3)[C@H](C)OC2=O)c1O
6. COc1ccnc(C(=O)N[C@H]2COC[C@H](CCCc3ccccc3)[C@@H](Cc3ccc(OC(F)(F)F)cc3)[C@H](C)OC2=O)c1O

Out:
["> 70%", "> 70%", "> 70%", "> 70%", "> 70%", "< 70%"]

In: So what does the record say about pest or weed control at 100 µg/mL for CCC[C@H]1COC[C@H](NC(=O)c2nccc(OC)c2O)C(=O)O[C@@H](C)[C@@H]1CC(C)C ?
Out: < 70%

Where these numbers come from: patent US9955691B2
